These entries and their values trace back to paper PMC9569990.

# systemUnderTest: T1, Leptin (human, UniProt P41159 22-167)
# T1 construct: Leptin, human, UniProt P41159; see the manufacturer's catalogue number; source: bought: PeproTech (source E. coli)
# T1 sequence (P41159 22-167): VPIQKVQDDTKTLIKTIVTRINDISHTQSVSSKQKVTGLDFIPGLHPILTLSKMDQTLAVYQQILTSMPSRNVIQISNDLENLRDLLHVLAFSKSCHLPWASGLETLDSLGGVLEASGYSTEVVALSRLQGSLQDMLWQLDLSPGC
# assay: SPR; cytokine immobilised on ProteOn GLH sensor chip by amine coupling (9,000-14,000 RU); S100P (wild type or mutant) as analyte, 62 nM-16 µM; 25 °C; 10 mM HEPES, 150 mM NaCl, 1 mM CaCl2, 0.05% TWEEN 20, pH 7.4; heterogeneous ligand model (two ligand populations), one-site model for IL-13; values averaged over analyte concentrations (n = 3-5)
# conditionSet: both partners purified
measuredProperty: Kd

Q) Recorded Kd of Human S100P mutant Δ42–47 (lacks PGFLQS sequence in the 'hinge') (natural protein, S100P protein, human, recombinant, with residues 42-47 (PGFLQS) deleted; source: E. coli, prepared as previously described [28]) MTELETAMGMIIDVFSRYSGSEGSTQTLTKGELKVLMEKELGKDKDAVDKLLKDLDANGDAQVDFSEFIVFVAAITSACHKYFEKAGLK , please.
A) > 100 µM
